- target.system: Human DRP1 (1—699) (Homo sapiens)
- Sequence (O00429 1-699 isoform O00429-4): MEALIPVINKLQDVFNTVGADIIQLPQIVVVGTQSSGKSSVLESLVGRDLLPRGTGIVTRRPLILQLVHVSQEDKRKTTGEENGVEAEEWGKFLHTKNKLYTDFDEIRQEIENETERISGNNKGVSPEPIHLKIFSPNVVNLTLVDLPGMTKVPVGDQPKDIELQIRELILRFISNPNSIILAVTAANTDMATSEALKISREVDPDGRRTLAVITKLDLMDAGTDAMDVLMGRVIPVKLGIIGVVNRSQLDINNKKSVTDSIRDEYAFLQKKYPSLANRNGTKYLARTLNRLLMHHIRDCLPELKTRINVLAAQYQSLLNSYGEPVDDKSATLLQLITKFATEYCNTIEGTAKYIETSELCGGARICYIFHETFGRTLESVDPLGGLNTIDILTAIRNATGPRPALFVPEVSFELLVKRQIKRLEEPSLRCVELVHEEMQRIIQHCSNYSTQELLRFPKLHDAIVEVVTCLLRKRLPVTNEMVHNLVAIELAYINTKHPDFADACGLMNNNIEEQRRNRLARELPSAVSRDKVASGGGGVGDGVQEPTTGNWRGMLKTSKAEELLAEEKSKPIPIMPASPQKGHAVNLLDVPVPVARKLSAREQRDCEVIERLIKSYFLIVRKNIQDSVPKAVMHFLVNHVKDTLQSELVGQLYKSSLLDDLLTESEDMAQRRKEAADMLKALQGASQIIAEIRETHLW
pIC50: −log10 of the molar value.

{"columns": ["compound", "pIC50"],
 "data": [
  ["Nc1nc2c(ncn2[C@@H]2O[C@H](COP(=O)(O)OP(=O)(O)OP(O)(O)=S)[C@@H](O)[C@H]2O)c(=O)[nH]1 [GTPγS]", "3.30 to 3.52"]
]}

###

- target.system: dynamin-1 (1—752) (Homo sapiens, UniProt Q05193)
- Sequence (Q05193 1-752): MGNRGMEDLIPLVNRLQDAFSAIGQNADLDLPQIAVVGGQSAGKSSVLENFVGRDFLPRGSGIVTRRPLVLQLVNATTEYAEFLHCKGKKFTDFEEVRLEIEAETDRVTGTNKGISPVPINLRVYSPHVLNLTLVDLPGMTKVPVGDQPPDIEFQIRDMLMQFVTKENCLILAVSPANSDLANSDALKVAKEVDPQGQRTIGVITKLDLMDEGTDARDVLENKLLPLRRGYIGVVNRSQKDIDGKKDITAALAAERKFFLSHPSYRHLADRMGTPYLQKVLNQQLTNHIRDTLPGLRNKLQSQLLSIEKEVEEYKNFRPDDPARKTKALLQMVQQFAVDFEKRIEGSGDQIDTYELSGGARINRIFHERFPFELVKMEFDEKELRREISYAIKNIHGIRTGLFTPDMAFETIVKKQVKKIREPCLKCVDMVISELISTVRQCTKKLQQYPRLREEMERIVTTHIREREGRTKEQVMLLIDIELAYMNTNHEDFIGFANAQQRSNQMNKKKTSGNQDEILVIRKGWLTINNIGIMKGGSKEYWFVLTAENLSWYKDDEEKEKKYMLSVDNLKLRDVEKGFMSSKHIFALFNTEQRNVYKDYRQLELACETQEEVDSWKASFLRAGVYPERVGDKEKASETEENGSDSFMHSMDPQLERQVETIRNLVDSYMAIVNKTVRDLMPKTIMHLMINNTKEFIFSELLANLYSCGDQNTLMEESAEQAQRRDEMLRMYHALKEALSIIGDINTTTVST

{"columns": ["smi", "IC50"],
 "data": [
  ["Nc1nc2c(ncn2[C@@H]2O[C@H](COP(=O)(O)OP(=O)(O)OP(O)(O)=S)[C@@H](O)[C@H]2O)c(=O)[nH]1", "300 to 500 µM"]
]}
